geometric mean for assorted binders
target: T1, MUC1 on HCT116/MUC1 cells (UniProt P15941 24-1255, limits assumed); assay: FACS titration, HCT116/MUC1 cells, antibody at 0.244 nM
T1 construct: whole, on cells; also called MUC1 overexpressed cell line
T1 sequence (P15941 24-1255 limits assumed): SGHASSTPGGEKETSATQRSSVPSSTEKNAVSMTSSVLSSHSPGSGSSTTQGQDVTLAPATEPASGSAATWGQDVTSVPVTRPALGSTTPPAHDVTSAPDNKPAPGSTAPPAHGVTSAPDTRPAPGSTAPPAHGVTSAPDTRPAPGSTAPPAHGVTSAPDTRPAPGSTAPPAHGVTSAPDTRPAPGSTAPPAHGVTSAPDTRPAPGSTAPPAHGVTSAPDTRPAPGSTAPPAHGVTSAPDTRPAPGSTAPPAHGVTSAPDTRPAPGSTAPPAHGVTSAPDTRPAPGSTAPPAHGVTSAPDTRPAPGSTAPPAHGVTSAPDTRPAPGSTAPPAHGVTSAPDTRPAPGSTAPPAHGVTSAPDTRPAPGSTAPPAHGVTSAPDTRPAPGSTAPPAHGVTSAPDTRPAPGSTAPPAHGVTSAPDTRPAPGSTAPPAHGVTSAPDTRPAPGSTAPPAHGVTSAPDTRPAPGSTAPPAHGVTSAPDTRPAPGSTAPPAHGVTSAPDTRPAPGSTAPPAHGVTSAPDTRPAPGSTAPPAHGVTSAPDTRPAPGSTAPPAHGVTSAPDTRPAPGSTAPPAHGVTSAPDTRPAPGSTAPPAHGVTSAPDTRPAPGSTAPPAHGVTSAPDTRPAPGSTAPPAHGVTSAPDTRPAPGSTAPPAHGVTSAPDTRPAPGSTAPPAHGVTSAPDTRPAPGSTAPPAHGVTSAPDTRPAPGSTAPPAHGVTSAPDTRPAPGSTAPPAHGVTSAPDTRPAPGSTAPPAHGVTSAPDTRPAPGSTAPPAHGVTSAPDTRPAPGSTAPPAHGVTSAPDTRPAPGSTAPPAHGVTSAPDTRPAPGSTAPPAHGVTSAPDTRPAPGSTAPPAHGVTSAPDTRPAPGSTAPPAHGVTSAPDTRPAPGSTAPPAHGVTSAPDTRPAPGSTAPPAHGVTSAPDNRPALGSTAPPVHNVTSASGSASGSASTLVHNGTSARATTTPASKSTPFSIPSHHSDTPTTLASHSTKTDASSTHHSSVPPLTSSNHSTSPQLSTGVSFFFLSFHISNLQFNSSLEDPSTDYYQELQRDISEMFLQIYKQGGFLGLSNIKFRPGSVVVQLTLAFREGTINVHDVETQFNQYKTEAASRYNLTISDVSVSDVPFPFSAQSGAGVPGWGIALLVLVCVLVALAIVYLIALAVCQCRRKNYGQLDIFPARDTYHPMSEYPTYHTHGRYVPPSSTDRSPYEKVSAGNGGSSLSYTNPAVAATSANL
Keep it simple and answer with nothing but the number.

Would you please look over these solved cases?
| binder | recorded_result |
| --- | --- |
| VH5 + VL3 (antibody, V domains shown, Humanized IgG expressed in HEK293; also called humanized antibody VH5+VL3) VH: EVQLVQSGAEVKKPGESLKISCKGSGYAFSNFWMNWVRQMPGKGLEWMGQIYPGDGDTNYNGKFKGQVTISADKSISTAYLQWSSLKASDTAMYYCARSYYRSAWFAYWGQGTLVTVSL VL: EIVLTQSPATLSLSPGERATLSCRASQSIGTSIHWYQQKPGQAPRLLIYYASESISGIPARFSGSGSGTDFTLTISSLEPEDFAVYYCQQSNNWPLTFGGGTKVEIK | 2.82 |
| VH3 + VL1 (antibody, V domains shown, Humanized IgG expressed in HEK293; also called humanized antibody VH3+VL1) VH: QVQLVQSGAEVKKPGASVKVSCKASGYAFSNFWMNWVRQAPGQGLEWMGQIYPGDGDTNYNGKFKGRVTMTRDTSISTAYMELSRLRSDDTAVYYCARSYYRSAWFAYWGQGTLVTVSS VL: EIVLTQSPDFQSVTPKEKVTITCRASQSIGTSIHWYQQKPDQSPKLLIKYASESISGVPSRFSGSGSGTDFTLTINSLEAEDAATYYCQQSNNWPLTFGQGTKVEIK | 3.1 |

Notebook: VH1 + VL1 (antibody, V domains shown, Humanized IgG expressed in HEK293; also called humanized antibody VH1+VL1) VH: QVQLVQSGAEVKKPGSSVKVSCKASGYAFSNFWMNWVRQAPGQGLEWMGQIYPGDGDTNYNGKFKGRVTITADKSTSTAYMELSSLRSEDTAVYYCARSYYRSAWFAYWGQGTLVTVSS VL: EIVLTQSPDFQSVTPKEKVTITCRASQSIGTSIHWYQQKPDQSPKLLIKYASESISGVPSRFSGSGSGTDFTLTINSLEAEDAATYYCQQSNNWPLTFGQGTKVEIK , geometric mean read as 2.72

Provenance of the data: patent US20180036441A1
